Target: Toll-like receptor 8 (Homo sapiens) (UniProt Q9NR97)
Sequence (Q9NR97 whole entry): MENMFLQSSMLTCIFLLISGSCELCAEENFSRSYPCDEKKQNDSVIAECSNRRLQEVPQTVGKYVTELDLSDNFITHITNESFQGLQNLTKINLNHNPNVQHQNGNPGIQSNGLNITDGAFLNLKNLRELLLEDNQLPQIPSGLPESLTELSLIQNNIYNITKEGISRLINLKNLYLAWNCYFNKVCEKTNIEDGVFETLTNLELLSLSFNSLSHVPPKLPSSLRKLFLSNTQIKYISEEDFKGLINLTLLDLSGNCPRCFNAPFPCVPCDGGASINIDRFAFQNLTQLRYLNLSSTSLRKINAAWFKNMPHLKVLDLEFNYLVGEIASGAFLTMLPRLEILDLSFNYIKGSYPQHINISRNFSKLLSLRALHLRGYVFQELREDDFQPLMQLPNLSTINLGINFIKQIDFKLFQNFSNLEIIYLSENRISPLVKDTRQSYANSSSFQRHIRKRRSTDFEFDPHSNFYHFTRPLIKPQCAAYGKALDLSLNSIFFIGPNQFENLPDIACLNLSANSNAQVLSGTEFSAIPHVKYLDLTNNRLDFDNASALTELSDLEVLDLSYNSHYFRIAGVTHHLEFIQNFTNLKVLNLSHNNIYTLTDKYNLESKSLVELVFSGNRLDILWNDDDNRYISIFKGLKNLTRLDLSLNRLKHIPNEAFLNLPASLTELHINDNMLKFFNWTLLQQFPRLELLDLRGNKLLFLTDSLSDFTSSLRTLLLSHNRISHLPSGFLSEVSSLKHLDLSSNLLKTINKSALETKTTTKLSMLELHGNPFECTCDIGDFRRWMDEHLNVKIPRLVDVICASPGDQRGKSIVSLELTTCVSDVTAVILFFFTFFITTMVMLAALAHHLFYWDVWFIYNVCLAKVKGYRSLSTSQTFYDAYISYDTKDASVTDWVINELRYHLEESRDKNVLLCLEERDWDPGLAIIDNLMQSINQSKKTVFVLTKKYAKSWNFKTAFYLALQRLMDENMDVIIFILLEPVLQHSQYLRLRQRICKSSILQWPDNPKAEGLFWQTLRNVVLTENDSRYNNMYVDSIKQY
Assay: Modulation of human TLR8 expressed in HEK293 cells co-transfected with MD2 and sAP assessed as induction of NF-kappaB activity by reporter gene assay
Format: cell-based
The source made the active and inactive calls. No cut-off for these calls is given here.
Classes used: active, inactive

smilestext=CCCCCCc1cc2c(o1)c(N)nc1ccccc12 assignedlabel=active
smilestext=CCCc1cc2c(o1)c(N)nc1ccccc12 assignedlabel=active
smilestext=NCCc1cc2c(o1)c(N)nc1ccccc12 assignedlabel=active
smilestext=CCCCc1cc2c(nc(N)c3ccccc32)o1 assignedlabel=inactive
smilestext=CCCCCc1cc2c(o1)c(N)nc1ccccc12 assignedlabel=active
smilestext=Cc1cc2c(o1)c(N)nc1ccccc12 assignedlabel=active
